target: porcine stomach mucin (porcine); experiment: SPR
observable: pKd
FYI, pKd means -log10 of a concentration in mol per litre.

Indicate the recorded pKd value for this binder: YASPKCFRYPNGVLACT [odorranalectin]
5.72

Data provenance is paper PMC2440032.
